- targetOfAssay: OR51E1 olfactory receptor (Homo sapiens)
- Construct: expressed in transfected cells
- assayProtocol: Inhibitory dose-response assay in a cell line expressing the butyric acid olfactory receptor OR51E1
- Assay type: cell-based
- condition: table; butyric acid at EC80, EC87, EC90, or EC100; read-out: IC50
quantityMeasured: pIC50
Kindly note that pIC50 refers to -log10 of the concentration in mol/L and answer with the value alone.

Field pIC50 (entry CC(=O)O[C@H]([C@H]1CCCC[C@@H]1C)C(C)(C)C (racemic) ) reads 3.77

====

Measured IC50, listed per entry.
- targetOfAssay: OR51E1 olfactory receptor (Homo sapiens, UniProt Q8TCB6)
- Construct: expressed in transfected cells
- Sequence (Q8TCB6 whole entry): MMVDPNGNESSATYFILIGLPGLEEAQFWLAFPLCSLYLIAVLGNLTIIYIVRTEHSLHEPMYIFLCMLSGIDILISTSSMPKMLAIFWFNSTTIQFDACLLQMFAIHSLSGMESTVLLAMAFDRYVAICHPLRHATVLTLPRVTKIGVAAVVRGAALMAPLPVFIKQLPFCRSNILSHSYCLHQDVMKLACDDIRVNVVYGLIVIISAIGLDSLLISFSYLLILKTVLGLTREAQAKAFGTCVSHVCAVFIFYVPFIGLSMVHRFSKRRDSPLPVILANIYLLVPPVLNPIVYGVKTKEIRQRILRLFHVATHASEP
- assayProtocol: Inhibitory dose-response assay in a cell line expressing the butyric acid olfactory receptor OR51E1
- Format: cell-based
- condition: highly stringent screening conditions; cells treated with 67 μM butyric acid (EC94); read-out: calculated IC50, inhibitor of the butyric acid olfactory receptor OR51E1
Give just the number in µM; leave the unit off.

CC(=O)OC1C(C)(C)CCCC12C(C)C=CCC2C (stereo not shown) [Compound 3] ... 4.74
COC1C(C)(C)CCCC12CC=CC2 (stereo not shown) [Compound 8] ... 193
CC1CCCCC12CCCCC2O (stereo not shown) [Compound 12, 11-methylspiro[5.5]undecan-5-ol] ... 805
CC(=O)OC1C(C)(C)CCCC12CC=C(C)CC2C (stereo not shown) [Compound 6] ... 78.1
CC(=O)O[C@@H]1C(C)(C)CCC[C@]12CC=C(C)C[C@H]2C (racemic) [Compound 1] ... 45.2

Field IC50 (entry CC(=O)OC1C(C)(C)CCCC12CC(C)=C(C)C2 (stereo not shown) [Compound 2] ) reads 18.6

Field IC50 (entry CC1CC=CCC12CCCC(C)(C)C2OC=O (stereo not shown) [Compound 5] ) reads 46.9

Field IC50 (entry CC(=O)OC(C1C(C)C=C(C)CC1C)C(C)(C)C (stereo not shown) [Compound 17] ) reads 43.4

Field IC50 (entry CC(=O)O[C@H]([C@H]1CCCC[C@@H]1C)C(C)(C)C (racemic) [Compound 14] ) reads 68.6

Field IC50 (entry CC(=O)OC1C(C)(C)CCCC12CC=CC2 (stereo not shown) [Compound 7] ) reads 84.3
